Target Entity: GSK3α (GST-full length GSK3α) (Homo sapiens (Human), UniProt P49840)
Sequence (P49840 whole entry): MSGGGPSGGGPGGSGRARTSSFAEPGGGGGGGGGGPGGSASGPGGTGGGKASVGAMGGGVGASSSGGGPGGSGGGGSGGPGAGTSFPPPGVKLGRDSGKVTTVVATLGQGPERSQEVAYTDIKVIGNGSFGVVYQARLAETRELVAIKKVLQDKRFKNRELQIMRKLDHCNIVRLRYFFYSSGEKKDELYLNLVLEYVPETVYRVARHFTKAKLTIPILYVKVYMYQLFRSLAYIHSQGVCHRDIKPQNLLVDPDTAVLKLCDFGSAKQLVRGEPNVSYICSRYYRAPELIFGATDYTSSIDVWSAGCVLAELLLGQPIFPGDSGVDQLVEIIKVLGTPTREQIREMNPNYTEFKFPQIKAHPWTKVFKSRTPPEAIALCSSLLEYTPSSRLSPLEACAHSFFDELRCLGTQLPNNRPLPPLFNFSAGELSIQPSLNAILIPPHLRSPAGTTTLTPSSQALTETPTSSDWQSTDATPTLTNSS
Experiment Summary: GSK3α TR-FRET kinase assay
Format: biochemical
Condition Set: read-out: GSK3-A (TR-FRET 1 mM ATP); GMean; IC50; 1 mM ATP; geometric mean
Recorded Metric: IC50

Some solved cases for reference:
In [3]: df
Out[3]:
                                   molecule  experimental_value
0  CCC1(c2cccc(-c3ccncc3F)c2)C2=C(CC(C)(C)CC2=O)Nc2n[nH]c(C(F)(F)F)c21 (stereo not shown) [Compound 945528]            ≤ 0.1 µM
1  CCC1(c2cccc(-c3ccncc3)c2)C2=C(Nc3n[nH]cc31)C(F)C(C)(C)CC2=O (stereo not shown) [Compound 959341]           1 to 5 µM
2  CCC1(c2cccc(-c3cnn(C)c3)c2)C2=C(CC(C)(C)NC2=O)Nc2n[nH]c(C(F)F)c21 (stereo not shown) [Compound 949171]            ≤ 0.1 µM

Ask: Return reported IC50. Input molecule: CC[C@]1(c2cccc(-c3ccncc3O)c2)C2=C(CC(C)(C)CC2=O)Nc2n[nH]cc21 [Compound 945724]
Reply: 0.1 to 1 µM

Ask: Check the records and state IC50 for CCC1(c2cccc(-c3ccnc(C)c3)c2)C2=C(CC(C)(C)CC2=O)Nc2n[nH]c(C(F)(F)F)c21 (stereo not shown) [Compound 917289]
Reply: > 5 µM

Ask: Identify measured IC50 corresponding to CCC1(c2cccc(N3CCCC3)c2)C2=C(CC(C)(C)CC2=O)Nc2n[nH]c(C)c21 (stereo not shown) [Compound 883874]
Reply: ≤ 0.1 µM

Ask: # return recorded IC50 for input CCC1(c2cccc(-c3ccncc3F)c2)C2=C(CC(C)(C)NC2=O)Nc2n[nH]c(F)c21 (stereo not shown) [Compound 949651]
Reply: 0.1 to 1 µM

----------
Target Entity: UniProt:P49840
Experiment Summary: GSK3α TR-FRET kinase assay
Type: biochemical
Condition Set: 1 nM GSK3α, 4 μM ATP, 30 minute preincubation; geometric mean; read-out: GSK3-A TR-FRET BIOCHEMICAL (TR-FRET); GMean; IC50
Recorded Metric: IC50

In [3]: df
Out[3]:
                                   compound  experimental_value
0  CC1(C)CC(=O)C2=C(C1)Nc1n[nH]cc1C2(C)c1cc(F)cc(F)c1 (stereo not shown)      100 to 1000 nM

Ask: State recorded IC50 with UniProt:P49840, entry CC[C@]1(c2cccc(C3CC3)c2)C2=C(CC(C)(C)CC2=O)Nc2n[nH]cc21 , no comment.
Reply: ≤ 100 nM

Ask: Return reported IC50 for target or system UniProt:P49840, item CC[C@@]1(c2cccc(C(C)C)c2)C2=C(CC(C)(C)CC2=O)Nc2n[nH]cc21 .
Reply: ≤ 100 nM

Ask: Find IC50 for CC[C@]1(c2cccc(S(=O)(=O)C3CC3)c2)C2=C(CC(C)(C)N(C)C2=O)Nc2n[nH]cc21 on UniProt:P49840 and write it down.
Reply: ≤ 100 nM

----------
Target Entity: GSK3b (GST-full length GSK3b) (Homo sapiens (Human))
Experiment Summary: GSK3b TR-FRET kinase assay
Assay type: biochemical
Condition Set: 1 nM GSK3b, 2 μM ATP, 30 minute preincubation, Table 16; read-out: GSK3-B TR-FRET BIOCHEMICAL (TR-FRET); IC50
pIC50: −log10 of the molar value.
Below, each entry is listed alongside its reported pIC50.

Example compounds with recorded pIC50:
>>> df
                                   compound  recorded_metric  experimental_value
0  CCC1(c2cccc(-c3cnn(C)c3C)c2)C2=C(CC(C)(C)CC2=O)Nc2n[nH]c(C)c21 (stereo not drawn)            pIC50              ≥ 7.00
1  CCC1(c2cccc(-c3cnn(CCN4CCCC4)c3)c2)C2=C(CC(C)(C)NC2=O)Nc2n[nH]cc21 (stereo not drawn)            pIC50        5.30 to 6.00

Ask: Specify reported pIC50 for the compound shown: CCC1(c2cccc(C(F)(F)F)c2)C2=C(CCN(c3cn(C)nc3C)C2=O)Nc2n[nH]cc21 (stereo not drawn)
Reply: < 5.30

Ask: Input CC1(C)CC(=O)C2=C(C1)Nc1n[nH]cc1[C@]21CCO[C@H](C(F)(F)F)C1 , output reported pIC50.
Reply: < 5.30

Ask: Give the reported value of pIC50 for this record: CCC1(c2cccc(-c3ccncc3F)c2)C2=C(CC(C)(C)CC2=O)Nc2n[nH]c(C)c21 (stereo not drawn) [Compound 913052]
Reply: ≥ 7.00

----------
Target Entity: UniProt:P49841
Experiment Summary: GSK3b TR-FRET kinase assay
Format: biochemical
Condition Set: 1 nM GSK3b, 2 μM ATP, 30 minute preincubation, Table 16; read-out: GSK3-B TR-FRET BIOCHEMICAL (TR-FRET); IC50
Experimental: TR-FRET Assay: The assay was performed in a white, 384 well, low volume, flat bottom plate (Grenier). After a 30 minute preincubation in assay buffer with the indicated concentration of compound, the kinase activity was initiated by the addition of the substrates. […] After 60 min at room temperature the plate was read on Envision plate reader using Ex: 340 nm, Em: 615 nm and […]. The normalized 665/615 Signal ratio versus log compound concentration was analyzed by XLFIT to yield IC50 values.
# IC50 per record follows

As a guide, the following entries are already answered.
                                   compound  recorded_metric  experimental_value
0  CC[C@@H]1C[C@]2(CCO1)C1=C(CC(C)(C)CC1=O)Nc1n[nH]cc12             IC50           1 to 5 µM
1  CC[C@@]1(c2cccc(-c3ccnnc3)c2)C2=C(CC(C)(C)CC2=O)Nc2n[nH]cc21             IC50              > 5 µM
2  CCC1(c2cccc(N3CCOc4ncccc43)c2)C2=C(CC(C)(C)CC2=O)Nc2n[nH]cc21 (stereo not shown) [Compound 932643]             IC50           1 to 5 µM

Ask: Write down IC50 measured for item CCC1(c2cccc(S(=O)(=O)C(C)C)c2)C2=C(CC(C)(C)CC2=O)Nc2n[nH]cc21 (stereo not shown) [Compound 913134]
Reply: 1 to 5 µM

----------
Target Entity: GSK3b (GST-full length GSK3b) (Homo sapiens (Human), UniProt P49841)
Sequence (P49841 whole entry): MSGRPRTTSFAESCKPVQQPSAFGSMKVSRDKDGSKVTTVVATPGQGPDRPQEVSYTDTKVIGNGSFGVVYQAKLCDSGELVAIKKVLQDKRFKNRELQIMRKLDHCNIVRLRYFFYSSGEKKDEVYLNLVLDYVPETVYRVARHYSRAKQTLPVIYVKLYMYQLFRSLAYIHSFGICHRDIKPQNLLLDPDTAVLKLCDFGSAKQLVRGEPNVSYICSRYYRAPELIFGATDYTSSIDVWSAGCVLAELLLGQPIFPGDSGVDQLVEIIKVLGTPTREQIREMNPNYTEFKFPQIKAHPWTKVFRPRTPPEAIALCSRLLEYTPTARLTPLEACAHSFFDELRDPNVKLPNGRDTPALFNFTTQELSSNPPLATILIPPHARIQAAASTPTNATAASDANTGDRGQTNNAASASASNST
Experiment Summary: GSK3b TR-FRET kinase assay
Assay type: biochemical
Condition Set: 1 nM GSK3b, 2 μM ATP, 30 minute preincubation, Table 16; read-out: GSK3-B TR-FRET BIOCHEMICAL (TR-FRET)
Recorded Metric: IC50

Ask: Note down IC50 recorded for CC1(C)CC(=O)C2=C(C1)Nc1n[nH]cc1[C@]21CC[C@H](C(F)(F)F)C1
Reply: 100 to 1000 nM

Ask: Fill in reported IC50 for this entry: COCc1ccc(S(=O)(=O)N2CCC3(CC2)C2=C(CC(C)(C)CC2=O)Nc2n[nH]cc23)cc1
Reply: ≤ 100 nM

Ask: Kindly indicate its recorded IC50. Item: CCC1(c2cccc(-c3c(C)cnn3C)c2)C2=C(CC(C)(C)CC2=O)Nc2n[nH]cc21 (stereo not shown)
Reply: ≤ 100 nM

Ask: Using the record for CC[C@H]1C[C@]2(CO1)C1=C(CC(C)(C)CC1=O)Nc1n[nH]cc12 , state its measured IC50.
Reply: 100 to 1000 nM

----------
Target Entity: GSK3α (GST-full length GSK3α) (Homo sapiens (Human), UniProt P49840)
Experiment Summary: GSK3α TR-FRET kinase assay
Format: biochemical
Condition Set: 1 nM GSK3α, 4 μM ATP, 30 minute preincubation, Table 16; read-out: GSK3-A TR-FRET BIOCHEMICAL (TR-FRET); IC50
Recorded Metric: IC50

Ask: Complete the entry with IC50 for CCC1(c2cccc(C(F)(F)F)c2)C2=C(Nc3n[nH]cc31)c1ccccc1C2=O (stereo not shown)
Reply: ≤ 100 nM

Ask: Supply reported IC50 belonging to this compound: CCC1(c2cccc(-c3cnn(C)c3F)c2)C2=C(CC(C)(C)NC2=O)Nc2n[nH]cc21 (stereo not shown)
Reply: 1000 to 5000 nM

Ask: Tell me measured IC50 for CC[C@@]1(c2cccc(-c3ccnc(C)c3F)c2)C2=C(CC(C)(C)CC2=O)Nc2n[nH]c(C)c21 please.
Reply: > 5000 nM

Ask: Name the recorded IC50 of the item CC[C@]1(c2cccc(-c3cnn4ccncc34)c2)C2=C(CC(C)(C)NC2=O)Nc2n[nH]cc21 in your answer.
Reply: ≤ 100 nM

Values were extracted from patent US20250313563A1.
